# targetEntity: T1, FLAG-Hs_FPR2 C-terminally fused to Renilla Luciferase 8 (human, UniProt P25090 1-351)
# T1 sequence (looked up): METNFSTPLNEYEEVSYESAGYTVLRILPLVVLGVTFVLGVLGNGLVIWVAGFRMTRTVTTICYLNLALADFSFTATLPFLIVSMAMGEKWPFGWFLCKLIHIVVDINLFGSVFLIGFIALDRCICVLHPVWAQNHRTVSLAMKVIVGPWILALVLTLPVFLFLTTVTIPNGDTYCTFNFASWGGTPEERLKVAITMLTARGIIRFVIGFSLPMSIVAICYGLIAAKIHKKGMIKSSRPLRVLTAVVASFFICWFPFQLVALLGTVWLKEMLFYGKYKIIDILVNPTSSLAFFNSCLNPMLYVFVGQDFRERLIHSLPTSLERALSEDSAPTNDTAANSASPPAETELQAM
# methodNotes: cell-based or functional assay
Where no end group is shown, it is not given here. [ ]: non-standard residue; d: D form. The star is where a group is joined. Palmitoyl = CCCCCCCCCCCCCCCC(=O)*; For = O=C*
propertyLabel: BRET of receptor-RLuc8 with Venus-mGsi: Emax (% of 1 μM WKYMVm)

Solved cases below.
For-MLFK [fMet-Leu-Phe-Lys (fMLFK)]; 80.7%
WKYMV[dM] (the last residue is the D form; the bought peptide is probably also an amide (surmise); source: bought: Tocris) [WKYMVm]; 100%
WKYMVM (synthetic hexapeptide, all L residues; also called L-enantiomer of WKYMVm; source: bought: Tocris); 79.2%
For-MTPMRKINPLMKLIN [MCT-2 (Formyl-MTPMRKINPLMKLIN from Cytochrome b)]; 44.4%
For-Met-Leu-Phe [fMet-Leu-Phe (fMLF)]; 61.7%

We next turn to a different binder, shown below.
q: // lookup BRET of receptor-RLuc8 with Venus-mGsi: Emax (% of 1 μM WKYMVm) for {Palmitoyl-Palmitoyl}-KIHKKGMIKS (Pal is printed twice; the text speaks of N-terminal palmitoylation as the last step of the synthesis; also called pepducin; source: synthetic peptide (Fmoc solid phase, purified by preparative RP-HPLC)) [F2Pal10 (Pal-Pal-KIHKKGMIKS)]
a: 19.4%
